AUC(0-inf) for assorted molecules
Experiment: AUC (0 to infinity) in Sprague-Dawley rat at 5 mg/kg, iv by LC-MS/MS analysis
Assay type: ADME, organism-based
Set-up: dose 5 mg/kg, route iv
Details: in vivo

- mol smiles: "NS(=O)(=O)NCCNc1nonc1C(=NO)Nc1ccc(F)c(Br)c1"
  AUC(0-inf): "856 ng·h/mL"

Briefly, AUC(0-inf) measured for CCNC(=O)Nc1nonc1/C(=N/O)Nc1ccc(F)c(Br)c1 : 2690 ng·h/mL

----------
# Lookup of reported IC50 keyed by entry
Target: UniProt P14902
Sequence (P14902 whole entry): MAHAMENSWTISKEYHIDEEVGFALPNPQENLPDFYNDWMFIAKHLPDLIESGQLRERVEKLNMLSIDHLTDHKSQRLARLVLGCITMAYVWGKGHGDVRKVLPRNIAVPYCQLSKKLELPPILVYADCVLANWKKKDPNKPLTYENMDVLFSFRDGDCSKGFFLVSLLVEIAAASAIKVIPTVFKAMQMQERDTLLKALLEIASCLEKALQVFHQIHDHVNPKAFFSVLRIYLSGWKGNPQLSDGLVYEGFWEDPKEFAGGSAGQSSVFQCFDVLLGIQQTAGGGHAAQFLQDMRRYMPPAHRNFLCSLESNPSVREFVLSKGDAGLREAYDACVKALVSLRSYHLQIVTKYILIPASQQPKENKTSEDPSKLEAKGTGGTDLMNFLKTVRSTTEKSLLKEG
Assay: Inhibition of human recombinant IDO1 assessed as reduction in N-formylkynurenine formation using L-tryptophan as substrate preincubated for 30 mins followed by substrate addition and measured after 20 mins by SpectraMax microplate reader analysis

- mol smiles: "NCCCNC(=O)Nc1nonc1/C(=N/O)Nc1ccc(F)c(Br)c1"
  value observed: "> 1 µM"

compound NCCNC(=O)Nc1nonc1/C(=N/O)Nc1ccc(F)c(Br)c1 , IC50 observed: > 1 µM

IC50 in this record for O=C(Nc1nonc1/C(=N/O)Nc1ccc(F)c(Br)c1)N1CCCCC1 : > 1 µM
